Test system: U251 CNS
Assay: NCI tumour cell line growth inhibition, 48 h
measured.attribute: TGI

I'm curious: which TGI was measured for C=C1C(=O)O[C@@H]2C[C@@H](C)[C@@H]3C=CC(=O)[C@@]3(C)[C@@H](OC(=O)CC(=O)O[C@H]3[C@@H]4C(=C)C(=O)O[C@@H]4C[C@@H](C)[C@@H]4C=CC(=O)[C@]43C)[C@H]12 tested on U251 CNS?
0.149 µM

I'm curious: which TGI was measured for CCN(Cc1cccc(F)c1)c1ccc(CO)c(Cl)c1 tested on U251 CNS?
26.5 µM

I'm curious: which TGI was measured for CCCCCC(=O)C(C)C1=Nc2nnc(CCCCCCCc3nnc4n3C(=O)C(C(C)C(=O)CCCCC)=N4)n2C1=O (centres undefined) tested on U251 CNS?
> 100 µM

I'm curious: which TGI was measured for Cc1cc(=O)oc2cc(OC(=O)N(C)C)c(Cl)cc12 tested on U251 CNS?
> 100 µM

I'm curious: which TGI was measured for COc1cc(OC)cc(N(CCNC(C)C)c2ccc3ncc(-c4cnn(C)c4)nc3c2)c1 tested on U251 CNS?
19.6 µM

I'm curious: which TGI was measured for CC(=O)[O][Ga]([Cl])[O]C(C)=O tested on U251 CNS?
> 100 µM

I'm curious: which TGI was measured for Cc1nc(SCC(=O)Nc2nc(-c3ccc(Cl)cc3)cs2)n(Nc2ccccc2)c1C tested on U251 CNS?
13 µM

I'm curious: which TGI was measured for O=C1CCC2(CC1CC(Sc1ccccc1)Sc1ccccc1)OCCO2 (centres undefined) tested on U251 CNS?
> 100 µM

I'm curious: which TGI was measured for COc1ccc2nc3ccc(OC)cc3c(SCCO)c2c1 tested on U251 CNS?
> 100 µM

I'm curious: which TGI was measured for O=C(O)c1cc2ccccc2c(N=Nc2ccc(S(=O)(=O)Nc3nccs3)cc2)c1O tested on U251 CNS?
> 100 µM

I'm curious: which TGI was measured for Cc1ccsc1/C=N/Nc1nc2ccccc2s1 tested on U251 CNS?
28.3 µM

I'm curious: which TGI was measured for COc1ccc(-c2cn[nH]c2-c2cc(OC)c3c(c2)OCO3)cc1 tested on U251 CNS?
10.7 µM

I'm curious: which TGI was measured for O=S(=O)(c1ccccc1)n1c2ccc(Br)cc2c2nc3ccccc3nc21 tested on U251 CNS?
> 100 µM

I'm curious: which TGI was measured for COC(=O)C(Cc1c(C2Nc3ccccc3C2CC(NC(=O)CNC(C)=O)C(=O)OC)[nH]c2ccccc12)NC(=O)CNC(C)=O (centres undefined) tested on U251 CNS?
> 100 µM

I'm curious: which TGI was measured for C1CCC2(CC1)O[C@@H]1[C@@H](O2)[C@@H](O[C@H]2O[C@@H]3COC4(CCCCC4)O[C@H]3[C@@H]3OC4(CCCCC4)O[C@@H]23)O[C@@H]2COC3(CCCCC3)O[C@@H]12 tested on U251 CNS?
> 100 µM

I'm curious: which TGI was measured for CCCCc1ccc(Nc2nc3c(ncn3C3CC(O)C(CN=[N+]=[N-])O3)c(=O)[nH]2)cc1 (centres undefined) tested on U251 CNS?
> 100 µM

I'm curious: which TGI was measured for O=C(Nc1cccc(-n2ccc3c(NC(=O)c4ccccc4)nccc32)c1)Nc1cc(C(F)(F)F)cc(C(F)(F)F)c1 tested on U251 CNS?
7.68 µM

I'm curious: which TGI was measured for CC[C@H](O)[C@H](C)C=C1SCCCS1 tested on U251 CNS?
> 100 µM

I'm curious: which TGI was measured for O=CN1CCN(C(=O)c2ccc(Cl)cc2Cl)C1=S tested on U251 CNS?
> 100 µM
